The values you see were collected from patent US20170044208A1.

Biological target: Glucocorticoid Receptor (GR) (Homo sapiens)
Construct: Cells were transfected the next day with MMTV-Luc (5 μg) and pGL4-hRLuc (0.1 μg); endogenous in cells; host or cells: HeLa
Sequence (P04150 1-777): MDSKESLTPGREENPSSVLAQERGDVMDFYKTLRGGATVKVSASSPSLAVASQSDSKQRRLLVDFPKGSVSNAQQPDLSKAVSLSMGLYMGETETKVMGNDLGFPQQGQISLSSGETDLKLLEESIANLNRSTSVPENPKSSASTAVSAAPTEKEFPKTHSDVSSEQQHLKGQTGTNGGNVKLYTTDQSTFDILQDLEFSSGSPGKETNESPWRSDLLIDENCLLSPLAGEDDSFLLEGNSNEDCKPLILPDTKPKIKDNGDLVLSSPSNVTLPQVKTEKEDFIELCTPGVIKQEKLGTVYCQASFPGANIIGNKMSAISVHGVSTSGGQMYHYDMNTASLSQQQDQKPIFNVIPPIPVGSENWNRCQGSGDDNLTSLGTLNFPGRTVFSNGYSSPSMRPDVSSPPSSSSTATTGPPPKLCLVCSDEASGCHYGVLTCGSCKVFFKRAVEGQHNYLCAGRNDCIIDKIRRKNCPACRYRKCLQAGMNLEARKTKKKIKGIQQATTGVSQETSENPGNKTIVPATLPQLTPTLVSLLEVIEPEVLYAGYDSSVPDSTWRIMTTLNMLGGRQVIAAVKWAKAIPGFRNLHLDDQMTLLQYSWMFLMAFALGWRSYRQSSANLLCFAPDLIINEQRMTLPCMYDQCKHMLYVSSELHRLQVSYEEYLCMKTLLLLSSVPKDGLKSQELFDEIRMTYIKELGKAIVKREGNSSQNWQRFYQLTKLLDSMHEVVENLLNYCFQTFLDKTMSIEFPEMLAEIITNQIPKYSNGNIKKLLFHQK
Assay: Transactivation assay (MMTV-Luc reporter in HeLa cells)
Type: cell-based
Conditions: comparison table; against maximal activation seen with dexamethasone
READOUT_NAME: TA % (%)

MOLECULE	READOUT_NAME	MEASURED
C[C@@H]1C[C@H]2[C@@H]3CCC4=CC(=O)C=C[C@]4(C)[C@@]3(F)[C@@H](O)C[C@]2(C)[C@@]1(O)c1csc(NC(=O)c2ccc(F)cc2)n1	TA %	6
COC(=O)c1ccc(OCCCNC(=O)[C@@]2(O)[C@H](C)C[C@H]3[C@@H]4CCC5=CC(=O)C=C[C@]5(C)[C@@]4(F)[C@@H](O)C[C@@]32C)cc1	TA %	39
C[C@@H]1C[C@H]2[C@@H]3CCC4=CC(=O)C=C[C@]4(C)[C@@]3(F)[C@@H](O)C[C@]2(C)[C@@]1(O)C(=O)CO [Dex, dexamethasone, reference compound]	TA %	100

---

Target: Glucocorticoid Receptor (GR) (Homo sapiens)
Construct: Cells were transfected the next day with MMTV-Luc (5 μg) and pGL4-hRLuc (0.1 μg); endogenous in cells; host or cells: HeLa
Test: Transactivation assay (MMTV-Luc reporter in HeLa cells)
Assay type: cell-based
Conditions: HeLa, 16 h; read-out: TA Max %
Method: HeLa cells were seeded at 80×10^4 cells/dish in 100 mm dishes. Cells were transfected the next day with MMTV-Luc (5 μg) and pGL4-hRLuc (0.1 μg), in 250 μL of Opti-MEM I using FuGENE HD (15 μL). […] Firefly and Renilla luciferase activity was measured using the Dual Luciferase Reporter system following the manufacturer's protocol. IC50 and EC50 values were calculated by using GraphPad Prism 5.0. Briefly, luminescence values for luciferase were normalised using the Renilla luminescence values. […]
Would you please tag the item 1 (yes) when its Emax is 10% or above, and 0 (no) when it is below?

COMPOUND	ANSWER_LABEL
C[C@@H]1C[C@H]2[C@@H]3CCC4=CC(=O)C=C[C@]4(C)[C@@]3(F)[C@@H](O)C[C@]2(C)[C@@]1(O)C(=O)NCCCc1ccc(F)cc1 [Compound 1]	1 (yes)
C[C@@H]1C[C@H]2[C@@H]3CCC4=CC(=O)C=C[C@]4(C)[C@@]3(F)[C@@H](O)C[C@]2(C)[C@@]1(O)c1csc(NC(=O)c2ccc3ncsc3c2)n1 [Compound 39]	0 (no)
COc1cccc(C(=O)Nc2nc([C@@]3(O)[C@H](C)C[C@H]4[C@@H]5CCC6=CC(=O)C=C[C@]6(C)[C@@]5(F)[C@@H](O)C[C@@]43C)cs2)c1 [Compound 29]	0 (no)
COC(=O)c1ccc(OCCCNC(=O)[C@@]2(O)[C@H](C)C[C@H]3[C@@H]4CCC5=CC(=O)C=C[C@]5(C)[C@@]4(F)[C@@H](O)C[C@@]32C)cc1 [Compound 17]	1 (yes)
C[C@@H]1C[C@H]2[C@@H]3CCC4=CC(=O)C=C[C@]4(C)[C@@]3(F)[C@@H](O)C[C@]2(C)[C@@]1(O)C(=O)NCCOc1ccncc1 [Compound 12]	1 (yes)
C[C@@H]1C[C@H]2[C@@H]3CCC4=CC(=O)C=C[C@]4(C)[C@@]3(F)[C@@H](O)C[C@]2(C)[C@@]1(O)c1csc(NC(=O)c2ccncc2)n1 [Compound 31]	0 (no)
C[C@@H]1C[C@H]2[C@@H]3CCC4=CC(=O)C=C[C@]4(C)[C@@]3(F)[C@@H](O)C[C@]2(C)[C@@]1(O)C(=O)NCCCc1ccccn1 [Compound 2]	1 (yes)
COc1ccc(CNc2nc([C@@]3(O)[C@H](C)C[C@H]4[C@@H]5CCC6=CC(=O)C=C[C@]6(C)[C@@]5(F)[C@@H](O)C[C@@]43C)cs2)cc1 [Compound 42]	0 (no)
COc1ccc(OCCCNC(=O)[C@@]2(O)[C@H](C)C[C@H]3[C@@H]4CCC5=CC(=O)C=C[C@]5(C)[C@@]4(F)[C@@H](O)C[C@@]32C)cc1OC [Compound 16]	1 (yes)
C[C@@H]1C[C@H]2[C@@H]3CCC4=CC(=O)C=C[C@]4(C)[C@@]3(F)[C@@H](O)C[C@]2(C)[C@@]1(O)c1csc(NC(=O)c2ccc(F)c(F)c2)n1 [Compound 44]	1 (yes)

---

biological target: Glucocorticoid Receptor (GR) (Homo sapiens, UniProt P04150); construct: Cells were transfected the next day with MMTV-Luc (5 μg) and pGL4-hRLuc (0.1 μg); endogenous in cells; host or cells: HeLa; assay: Transactivation assay (MMTV-Luc reporter in HeLa cells); assay type: cell-based; details: HeLa, 16 h; read-out: TA Max %
READOUT_NAME: Emax (%)

CHEMICAL_SMILES	SYSTEM_NAME	UNIT_OF_MEASUREMENT	MEASURED
C[C@@H]1C[C@H]2[C@@H]3CCC4=CC(=O)C=C[C@]4(C)[C@@]3(F)[C@@H](O)C[C@]2(C)[C@@]1(O)c1csc(NC(=O)c2cccc(F)c2)n1	Glucocorticoid Receptor (GR) (Homo sapiens, UniProt P04150)	%	3.9
C[C@@H]1C[C@H]2[C@@H]3CCC4=CC(=O)C=C[C@]4(C)[C@@]3(F)[C@@H](O)C[C@]2(C)[C@@]1(O)c1csc(NC(=O)c2cncs2)n1	Glucocorticoid Receptor (GR) (Homo sapiens, UniProt P04150)	%	0.23
COc1ccc(OCCCCNC(=O)[C@@]2(O)[C@H](C)C[C@H]3[C@@H]4CCC5=CC(=O)C=C[C@]5(C)[C@@]4(F)[C@@H](O)C[C@@]32C)cc1	Glucocorticoid Receptor (GR) (Homo sapiens, UniProt P04150)	%	26.3
C[C@@H]1C[C@H]2[C@@H]3CCC4=CC(=O)C=C[C@]4(C)[C@@]3(F)[C@@H](O)C[C@]2(C)[C@@]1(O)c1csc(NC(=O)c2cscn2)n1	Glucocorticoid Receptor (GR) (Homo sapiens, UniProt P04150)	%	1.19
COc1ccc(CCCNC(=O)[C@@]2(O)[C@H](C)C[C@H]3[C@@H]4CCC5=CC(=O)C=C[C@]5(C)[C@@]4(F)[C@@H](O)C[C@@]32C)cc1OC	Glucocorticoid Receptor (GR) (Homo sapiens, UniProt P04150)	%	30

---

# Lookup of reported EC50 keyed by entry
target: Glucocorticoid Receptor (GR) (Homo sapiens); construct: Cells were transfected the next day with MMTV-Luc (5 μg) and pGL4-hRLuc (0.1 μg); endogenous in cells; host or cells: HeLa; test: Transactivation assay (MMTV-Luc reporter in HeLa cells); assay type: cell-based; conditions: concentration for half-maximal transactivation; HeLa, MMTV-Luc, 16 hours; mean; read-out: TA EC50

CHEMICAL_SMILES	UNIT_OF_MEASUREMENT	EC50
CCOc1ccc(C(=O)Nc2nc([C@@]3(O)[C@H](C)C[C@H]4[C@@H]5CCC6=CC(=O)C=C[C@]6(C)[C@@]5(F)[C@@H](O)C[C@@]43C)cs2)cc1	µM	6.65
C[C@@H]1C[C@H]2[C@@H]3CCC4=CC(=O)C=C[C@]4(C)[C@@]3(F)[C@@H](O)C[C@]2(C)[C@@]1(O)c1csc(NC(=O)c2ccc[nH]2)n1	µM	2.77
COc1cccc(C(=O)Nc2nc([C@@]3(O)[C@H](C)C[C@H]4[C@@H]5CCC6=CC(=O)C=C[C@]6(C)[C@@]5(F)[C@@H](O)C[C@@]43C)cs2)c1	µM	19.4
C[C@@H]1C[C@H]2[C@@H]3CCC4=CC(=O)C=C[C@]4(C)[C@@]3(F)[C@@H](O)C[C@]2(C)[C@@]1(O)c1csc(NCc2ccccc2)n1	µM	3.93
COC(=O)c1ccc(OCCCNC(=O)[C@@]2(O)[C@H](C)C[C@H]3[C@@H]4CCC5=CC(=O)C=C[C@]5(C)[C@@]4(F)[C@@H](O)C[C@@]32C)cc1	µM	0.832
C[C@@H]1C[C@H]2[C@@H]3CCC4=CC(=O)C=C[C@]4(C)[C@@]3(F)[C@@H](O)C[C@]2(C)[C@@]1(O)c1csc(NC(=O)c2ccc(F)c(F)c2)n1	µM	0.914
C[C@@H]1C[C@H]2[C@@H]3CCC4=CC(=O)C=C[C@]4(C)[C@@]3(F)[C@@H](O)C[C@]2(C)[C@@]1(O)c1csc(NC(=O)c2cccc(F)c2)n1	µM	1.53
COc1ccc(OCCCCNC(=O)[C@@]2(O)[C@H](C)C[C@H]3[C@@H]4CCC5=CC(=O)C=C[C@]5(C)[C@@]4(F)[C@@H](O)C[C@@]32C)cc1	µM	0.669
C[C@@H]1C[C@H]2[C@@H]3CCC4=CC(=O)C=C[C@]4(C)[C@@]3(F)[C@@H](O)C[C@]2(C)[C@@]1(O)c1csc(NC(=O)c2cccnc2)n1	µM	2.23
C[C@@H]1C[C@H]2[C@@H]3CCC4=CC(=O)C=C[C@]4(C)[C@@]3(F)[C@@H](O)C[C@]2(C)[C@@]1(O)c1csc(NC(=O)c2ccc(F)cc2)n1	µM	1.4
